Tested on: CRF-binding protein / CRF receptor 2 complex (human)
Test: activators of CRF-R2 with CRF-BP – cell-based, HEK293, calcium dye fluorescence, uHTS, primary screen (AID 588473);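 note: plate controls were neutral control wells without compound for no effect and CRF at EC100 for full effect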
Settings: calcium dye fluorescence (FLIPR), at 13.2 µM
In all, about 350,000 compounds went through this assay and about 1,600 (0.46%) were called active.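 Rule for the calls: active = activation of at least 50%, plus an integration ratio under a set limit after plate pattern correction; inactive = the rest.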 This is one part of a sample in which actives are shown more often than they occur.
Outcomes you can answer with include only these: yes (1) for active, no (0) for inactive

>  <MOLECULE>
COC(=O)C1=C(c2ccc(C(C)=O)cc2)C[C@@H]2CC[C@H]1N2C(=O)NCCNC(C)=O

>  <CLASS NAME>
no (0)

$$$$
>  <MOLECULE>
COc1ccc(C2NCc3ccc4c(c3-n3cccc32)OCO4)cc1OC (centres undefined)

>  <CLASS NAME>
no (0)

$$$$
>  <MOLECULE>
Cn1c(O)c(C=NCCCC(=O)O)c(=O)n(C)c1=O

>  <CLASS NAME>
no (0)

$$$$
>  <MOLECULE>
CN1CCN(Cc2ccc(OC(F)(F)F)cc2)CC1

>  <CLASS NAME>
no (0)

$$$$
>  <MOLECULE>
COc1ccc(N2C(=O)/C(=C/c3ccco3)C(=O)NC2=S)cc1

>  <CLASS NAME>
no (0)

$$$$
>  <MOLECULE>
COc1cccc(N2C(=O)NC(=O)/C(=C\c3cn(C)c4ccccc34)C2=O)c1

>  <CLASS NAME>
yes (1)

$$$$
>  <MOLECULE>
c1ccc(C(CN2CCCCC2)c2ccccc2)cc1

>  <CLASS NAME>
no (0)

$$$$
>  <MOLECULE>
CCOP(=S)(OCC)C(O)CCCCCn1c(=O)c(F)cn(C2CCCO2)c1=O (centres undefined)

>  <CLASS NAME>
no (0)

$$$$

Turning now to a further molecule:
Field: outcome | Entry: COc1cccc(N2C(=O)NC(=O)/C(=C\c3ccc([N+](=O)[O-])s3)C2=O)c1
no (0)
